Test Description: LogP
Assay type: physicochemical
Readout Type: logP
Please reply with the number alone, leaving off any unit.

Qu. Which logP value belongs to CC1=NN(C(=O)c2ccc(Cl)cc2)C(=O)C1N=Nc1ccc(S(=O)(=O)Nc2ncccn2)cc1 (stereo not shown) [Compound 1] ?
Ans. 2.1
